Target: SALL4 ZFC4 R900W (HT-SELEX) (Mus musculus, UniProt Q8BX22 870-940, R900W)
Sequence: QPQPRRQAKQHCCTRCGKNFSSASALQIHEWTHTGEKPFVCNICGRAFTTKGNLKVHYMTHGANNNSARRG
Assay: HT-SELEX; high values mean tight binding
Conditions: protein: recombinant; vector His6-GST; dsDNA, one strand shown
PROPERTY_NAME: binding signal (fold-change vs cycle 0)
Hi! Could you send only the number? It should be in fold-change vs cycle 0, unit omitted.

{"columns": ["PRIMARY_SEQUENCE", "READOUT_VALUE"],
 "data": [
  ["GTTGAA", 1.34]
]}

Q) Can you share its binding signal? I mean this sequence: AAGGGC
A) 0.343

Q) Can you share its binding signal? I mean this sequence: ATGAAG
A) 1.68

Q) Can you share its binding signal? I mean this sequence: GTTTGA
A) 1.26

---

Biological target: SALL4 ZFC4 WT (HT-SELEX) (Mus musculus, UniProt Q8BX22 870-940)
Sequence: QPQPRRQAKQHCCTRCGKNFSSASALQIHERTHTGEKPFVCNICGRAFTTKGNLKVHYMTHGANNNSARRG
Assay: HT-SELEX; high values mean tight binding
Details: protein: recombinant; vector His6-GST; dsDNA, one strand shown
Measured binding signal accompanies every entry in the list below.
Hi! Could you send only the number? It should be in fold-change vs cycle 0, unit omitted.

Please review the entries below; each comes with its answer.
{"columns": ["PRIMARY_SEQUENCE", "binding signal, fold-change vs cycle 0"],
 "data": [
  ["CCTTTA", 1.31],
  ["AATTCG", 0.945],
  ["GAGTGC", 0.332]
]}

// next item, binding signal requested
Q) Can you share its binding signal? I mean this sequence: CAGAGC
A) 0.315

---

Target: SALL4 ZFC4 G921D (HT-SELEX) (Mus musculus, UniProt Q8BX22 870-940, G921D)
Sequence: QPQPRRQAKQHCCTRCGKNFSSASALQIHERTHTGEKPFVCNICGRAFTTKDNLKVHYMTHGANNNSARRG
Assay: HT-SELEX; high values mean tight binding
Conditions: protein: recombinant; vector His6-GST; dsDNA, one strand shown
PROPERTY_NAME: binding signal
// return the numeric value with its unit appended

{"columns": ["PRIMARY_SEQUENCE", "binding signal"],
 "data": [
  ["AGCACA", "0.894 fold-change vs cycle 0"],
  ["GACCGA", "0.52 fold-change vs cycle 0"],
  ["CTGAAA", "1.21 fold-change vs cycle 0"]
]}

Q) Can you share its binding signal? I mean this sequence: ATGCCA
A) 0.695 fold-change vs cycle 0

Q) Can you share its binding signal? I mean this sequence: GAGTTA
A) 1.45 fold-change vs cycle 0

Q) Can you share its binding signal? I mean this sequence: ATTCCG
A) 0.798 fold-change vs cycle 0

Q) Can you share its binding signal? I mean this sequence: ATTTGA
A) 1.65 fold-change vs cycle 0

Q) Can you share its binding signal? I mean this sequence: CACATA
A) 1.25 fold-change vs cycle 0

Q) Can you share its binding signal? I mean this sequence: AGTCAT
A) 1.46 fold-change vs cycle 0

Q) Can you share its binding signal? I mean this sequence: CGATGA
A) 0.875 fold-change vs cycle 0

Q) Can you share its binding signal? I mean this sequence: ACTCGG
A) 0.588 fold-change vs cycle 0

Q) Can you share its binding signal? I mean this sequence: GAGGTA
A) 0.996 fold-change vs cycle 0

Q) Can you share its binding signal? I mean this sequence: GGGTGA
A) 0.632 fold-change vs cycle 0

Q) Can you share its binding signal? I mean this sequence: GAACGA
A) 0.9 fold-change vs cycle 0

Q) Can you share its binding signal? I mean this sequence: GCATAA
A) 1.11 fold-change vs cycle 0

---

Molecular target: SALL4 ZFC4 G921D (HT-SELEX) (Mus musculus, UniProt Q8BX22 870-940, G921D)
Sequence: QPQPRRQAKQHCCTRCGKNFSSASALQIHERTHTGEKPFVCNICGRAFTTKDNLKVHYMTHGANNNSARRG
Assay: HT-SELEX; high values mean tight binding
Details: protein: recombinant; vector His6-GST; dsDNA, one strand shown
Measured binding signal accompanies every entry in the list below.

{"columns": ["PRIMARY_SEQUENCE", "binding signal"],
 "data": [
  ["AAAGAT", "1.84 fold-change vs cycle 0"],
  ["ATATAG", "1.74 fold-change vs cycle 0"],
  ["ATTAAC", "1.83 fold-change vs cycle 0"],
  ["CGATCG", "0.53 fold-change vs cycle 0"]
]}

Q) Can you share its binding signal? I mean this sequence: ACGTTC
A) 0.871 fold-change vs cycle 0

Q) Can you share its binding signal? I mean this sequence: CCCTCA
A) 0.665 fold-change vs cycle 0

Q) Can you share its binding signal? I mean this sequence: ATGTCC
A) 0.904 fold-change vs cycle 0

Q) Can you share its binding signal? I mean this sequence: ATACTG
A) 1.36 fold-change vs cycle 0

Q) Can you share its binding signal? I mean this sequence: AGCGAA
A) 0.686 fold-change vs cycle 0

Q) Can you share its binding signal? I mean this sequence: GCAGCC
A) 0.221 fold-change vs cycle 0

Q) Can you share its binding signal? I mean this sequence: AGCATG
A) 0.882 fold-change vs cycle 0

---

Biological target: SALL4 ZFC4 R900W (HT-SELEX) (Mus musculus, UniProt Q8BX22 870-940, R900W)
Sequence: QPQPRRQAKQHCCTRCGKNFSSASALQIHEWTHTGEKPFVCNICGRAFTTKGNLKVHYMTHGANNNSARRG
Experiment: HT-SELEX; high values mean tight binding
Settings: protein: recombinant; vector His6-GST; dsDNA, one strand shown
Lab note: compare binding signal against 0.7 fold-change vs cycle 0. Equal or greater, write Met. Smaller, write Not met.

{"columns": ["PRIMARY_SEQUENCE", "STUDY_SYSTEM", "ASSIGNED_CLASS"],
 "data": [
  ["CGTTAG", "SALL4 ZFC4 R900W (HT-SELEX) (Mus musculus, UniProt Q8BX22 870-940, R900W)", "Met"],
  ["TAACGA", "SALL4 ZFC4 R900W (HT-SELEX) (Mus musculus, UniProt Q8BX22 870-940, R900W)", "Met"],
  ["CACTAA", "SALL4 ZFC4 R900W (HT-SELEX) (Mus musculus, UniProt Q8BX22 870-940, R900W)", "Met"]
]}

Q) Textbook exercise: given the entry TCCTAA , state whether its binding signal is greater than or equal to 0.7 fold-change vs cycle 0.
A) Met

Q) Textbook exercise: given the entry GGACGA , state whether its binding signal is greater than or equal to 0.7 fold-change vs cycle 0.
A) Not met

Q) Textbook exercise: given the entry CTAAAC , state whether its binding signal is greater than or equal to 0.7 fold-change vs cycle 0.
A) Met

Q) Textbook exercise: given the entry ACTAGC , state whether its binding signal is greater than or equal to 0.7 fold-change vs cycle 0.
A) Met

Q) Textbook exercise: given the entry GACGTA , state whether its binding signal is greater than or equal to 0.7 fold-change vs cycle 0.
A) Met

Q) Textbook exercise: given the entry ATTACC , state whether its binding signal is greater than or equal to 0.7 fold-change vs cycle 0.
A) Met

Q) Textbook exercise: given the entry ACGGGC , state whether its binding signal is greater than or equal to 0.7 fold-change vs cycle 0.
A) Not met

Q) Textbook exercise: given the entry GAAGTC , state whether its binding signal is greater than or equal to 0.7 fold-change vs cycle 0.
A) Met

Q) Textbook exercise: given the entry CGGGTA , state whether its binding signal is greater than or equal to 0.7 fold-change vs cycle 0.
A) Not met

Q) Textbook exercise: given the entry CTATCC , state whether its binding signal is greater than or equal to 0.7 fold-change vs cycle 0.
A) Met

Q) Textbook exercise: given the entry AGGAGA , state whether its binding signal is greater than or equal to 0.7 fold-change vs cycle 0.
A) Met

Q) Textbook exercise: given the entry GAATAA , state whether its binding signal is greater than or equal to 0.7 fold-change vs cycle 0.
A) Met

Q) Textbook exercise: given the entry AGCAAT , state whether its binding signal is greater than or equal to 0.7 fold-change vs cycle 0.
A) Met

Q) Textbook exercise: given the entry ATGCGG , state whether its binding signal is greater than or equal to 0.7 fold-change vs cycle 0.
A) Not met

Q) Textbook exercise: given the entry CACTCG , state whether its binding signal is greater than or equal to 0.7 fold-change vs cycle 0.
A) Not met

Q) Textbook exercise: given the entry GGTGAC , state whether its binding signal is greater than or equal to 0.7 fold-change vs cycle 0.
A) Not met

Q) Textbook exercise: given the entry CTTCTC , state whether its binding signal is greater than or equal to 0.7 fold-change vs cycle 0.
A) Met

Q) Textbook exercise: given the entry CGATTA , state whether its binding signal is greater than or equal to 0.7 fold-change vs cycle 0.
A) Met

Q) Textbook exercise: given the entry GTCAGA , state whether its binding signal is greater than or equal to 0.7 fold-change vs cycle 0.
A) Met

Q) Textbook exercise: given the entry ACCGGT , state whether its binding signal is greater than or equal to 0.7 fold-change vs cycle 0.
A) Not met

Q) Textbook exercise: given the entry CATTCG , state whether its binding signal is greater than or equal to 0.7 fold-change vs cycle 0.
A) Met
